# System: p38-alpha
# Construct: gene MAPK14
# Recorded conditions: concentration: 1 μM, replicates: in singlicate; n = 1
%Inh vs 10%: less than gives met; not less than gives not met.

>>> discrete_label("Cl.O=S(=O)(c1cccc(F)c1)c1ccc(Nc2ncnc3cc(Br)sc23)cc1Cl [GSK306886]")
"not met"
>>> discrete_label("C[C@@H]1CCN(C(=O)CO)C[C@@H]1N(C)c1ncnc2[nH]ccc12")
"met"

Strictly below 10% in %Inh? O=C(Nc1n[nH]c2nc(-c3ccco3)c(Br)cc12)c1ccc(CN2CCCC2)cc1.O=C(O)[C@H](O)[C@@H](O)C(=O)O [SB-742352]
met

Threshold test, %Inh < 10%: Cc1ccc(C)c(NC(=O)NCCNc2ccnc(Nc3ccc(F)cc3)n2)c1 [GSK1379878]
met

Given the entry CCc1nc(-c2cccc(N(C)S(=O)(=O)c3ccccc3)c2)c(-c2ccnc(Nc3ccc(N4CCN(C(C)=O)CC4)nc3)n2)s1 [GSK1645895] , would its reported %Inh be below 10%?
not met

# TODO verify %Inh < 10% strictly for this compound: Nc1nccc2scc(-c3ccc4c(c3)CCN4C(=O)Cc3cc(F)ccc3F)c12 [GSK2587663]
met

Determine whether this compound shows %Inh lower than 10% (ties excluded): CNc1nccc(-c2c(-c3ccc(F)cc3)ncn2CCCN2CCOCC2)n1 [SB-222516]
not met

###

pKd: −log10 of the molar value.
Here's a batch of molecules along with measured pKd for PAK3.

>>> readout_value("Oc1ccc2ncnc(Nc3ccc(OCc4ccccc4)cc3)c2c1")
"< 5.00"

Please turn your attention to the following entry.
Give the value of pKd reported for the following: CCCc1ccc(S(=O)(=O)NC2CCN(c3ccnc(Nc4ccc(OC)cc4)n3)C2)cc1 (centres unmarked)
< 5.00

###

Give %Inh for every item shown.
# Test system: CDK4-cyclinD3
# Recorded conditions: concentration: 1 μM, replicates: in singlicate; n = 1
Give bare numbers, in %.

Check out these entries, answers already filled in.
>>> readout_value("COc1ccc(-c2oc3ncnc(N)c3c2-c2ccc(OC)cc2)cc1 [SB-589132]")
12
>>> readout_value("CNc1nccc(-c2c(-c3ccc(F)cc3)ncn2CCCN2CCOCC2)n1 [SB-222516]")
16
>>> readout_value("FC(F)(F)c1ccc(-c2cc(-c3c[nH]nc3-c3ccccn3)ccn2)cc1 [GW599550]")
0
>>> readout_value("Cl.c1ccc(Cn2ccc3cc(Nc4ncnc5ccccc45)ccc32)cc1 [GW275568]")
16
>>> readout_value("Cc1cccc(-c2nc(Nc3ccc4[nH]nnc4c3)c3ccccc3n2)n1 [GW867587]")
0

Would you mind giving %Inh for every compound in the list below?
1. COc1ccc(Nc2nccc(N3CCC(NC(=O)Nc4ccc5c(c4)OCO5)C3)n2)cc1 (centres unmarked) [GSK1379745]
2. Fc1ccc(Nc2nccc(-c3c(-c4ccc(Cl)cc4)nn4ncccc34)n2)cc1F [GW829058]
3. Nc1nc(-c2ccc3c(N)n[nH]c3c2)cc(N2CCC[C@@H](C(=O)Nc3ccccc3)C2)n1.O=C(O)C(F)(F)F.O=C(O)C(F)(F)F [GSK2288359]
4. Clc1ccc(-c2cc(-c3c[nH]nc3-c3ccccn3)ccn2)cc1 [GW681251]

1. 0
2. 12
3. 0
4. 0

Batch request: %Inh per item, same order as input.
1. C[C@H]1CC[C@@H](C(=O)Nc2ccccc2)CN1c1cc(-c2ccc3c(N)n[nH]c3c2)nc(N)n1 [GSK2283293]
2. Oc1ccc2ncnc(Nc3ccc(OCc4ccccc4)cc3)c2c1 [GI262866]
3. Nc1nccc2scc(-c3ccc4c(c3)CCN4C(=O)Cc3cc(F)ccc3F)c12 [GSK2587663]
4. NC(=O)c1sc(-n2cnc3ccccc32)cc1OCc1ccccc1F [GSK1024306]
5. OCCOCCn1ccc2ncnc(Nc3ccc(Oc4cccc(Cl)c4)c(Cl)c3)c21
6. Cc1ccc(C)c(NC(=O)NCCNc2ccnc(Nc3ccc(F)cc3)n2)c1 [GSK1379878]
7. Cc1cc(N2CCC(NS(=O)(=O)c3ccc(F)cc3)CC2)nc(Nc2cccc(C#N)c2)n1.O=C(O)C(F)(F)F [GSK1653537]

0
0
0
0
0
0
0
